System: Escherichia coli
TEST_NAME: Antibacterial activity against Escherichia coli MG1655
Assay type: functional
For each record, check the reported MIC: if it is below 4 µg/mL write true, else write false.

Hello, is MIC of the following compound strictly smaller than 4 µg/mL? NC[C@H]1O[C@H](O[C@H]2[C@H](O)[C@@H](O[C@H]3O[C@H](CO)[C@@H](O)[C@H](N)[C@H]3O)[C@H](N)C[C@@H]2N)[C@H](O)[C@@H](O)[C@@H]1O
true

Try this compound too: CC[C@H]1OC(=O)[C@H](C)[C@@H](O[C@H]2C[C@@](C)(OC)[C@@H](O)[C@H](C)O2)[C@H](C)[C@@H](O[C@@H]2O[C@H](C)C[C@H](N(C)C)[C@H]2O)[C@](C)(O)C[C@@H](C)C(=O)[C@H](C)[C@@H](O)[C@]1(C)O
false

Try this compound too: CC1COc2c(N3CCN(C)CC3)c(F)cc3c(=O)c(C(=O)O)cn1c23 (stereo unspecified)
true

Try this compound too: CN[C@@H]1[C@H](O)[C@H](NC)[C@H]2O[C@@]3(O)C(=O)C[C@@H](C)O[C@H]3O[C@@H]2[C@H]1O
false

====

Provide the reported MIC of each item.
System: Escherichia coli
TEST_NAME: Antibacterial activity against Escherichia coli MG1655
Assay type: functional
Kindly provide the numeric value in µg/mL only, without the unit symbol.

Observed MIC on Escherichia coli for CN[C@@H]1[C@H](O[C@H]2[C@H](O[C@H]3[C@H](O)[C@@H](O)[C@H](N=C(N)N)[C@@H](O)[C@@H]3N=C(N)N)O[C@@H](C)[C@]2(O)C=O)O[C@@H](CO)[C@H](O)[C@H]1O , please.
2

Try this compound too: CC1(C)S[C@@H]2[C@H](NC(=O)Cc3ccccc3)C(=O)N2[C@H]1C(=O)O
64

Try this compound too: CN(C)[C@@H]1C(O)=C(C(N)=O)C(=O)[C@@]2(O)C(O)=C3C(=O)c4c(O)cccc4[C@@](C)(O)[C@H]3C[C@@H]12
1

====

Test system: Escherichia coli
TEST_NAME: Antibacterial activity against Escherichia coli DH5alpha in presence of 10 mM N-Acetylcysteine
Assay type: functional
CONDITION_SET: DH5[alpha]
Provide the reported MIC of each item.
Kindly provide the numeric value in µg/mL only, without the unit symbol.

What does the data say about its MIC? Entry: CN[C@@H]1[C@H](O)[C@H](NC)[C@H]2O[C@@]3(O)C(=O)C[C@@H](C)O[C@H]3O[C@@H]2[C@H]1O
4

Try this compound too: CC[C@H]1OC(=O)[C@H](C)[C@@H](O[C@H]2C[C@@](C)(OC)[C@@H](O)[C@H](C)O2)[C@H](C)[C@@H](O[C@@H]2O[C@H](C)C[C@H](N(C)C)[C@H]2O)[C@](C)(O)C[C@@H](C)C(=O)[C@H](C)[C@@H](O)[C@]1(C)O
16

Try this compound too: NC[C@H]1O[C@H](O[C@H]2[C@H](O)[C@@H](O[C@H]3O[C@H](CO)[C@@H](O)[C@H](N)[C@H]3O)[C@H](N)C[C@@H]2N)[C@H](O)[C@@H](O)[C@@H]1O
0.5

Try this compound too: CC1(C)S[C@@H]2[C@H](NC(=O)[C@H](N)c3ccccc3)C(=O)N2[C@H]1C(=O)O
4

Try this compound too: O=C(N[C@H](CO)[C@H](O)c1ccc([N+](=O)[O-])cc1)C(Cl)Cl
2

Try this compound too: CN[C@@H]1[C@H](O[C@H]2[C@H](O[C@H]3[C@H](O)[C@@H](O)[C@H](N=C(N)N)[C@@H](O)[C@@H]3N=C(N)N)O[C@@H](C)[C@]2(O)C=O)O[C@@H](CO)[C@H](O)[C@H]1O
1

Try this compound too: CN(C)[C@@H]1C(O)=C(C(N)=O)C(=O)[C@@]2(O)C(O)=C3C(=O)c4c(O)cccc4[C@@](C)(O)[C@H]3C[C@@H]12
1

====

System: Pseudomonas aeruginosa
TEST_NAME: Antibacterial activity against Pseudomonas aeruginosa NCIM 5029
Type: functional
Provide the reported MIC of each item.
Kindly provide the numeric value in µg/mL only, without the unit symbol.

What does the data say about its MIC? Entry: CN(C)[C@@H]1C(O)=C(C(N)=O)C(=O)[C@@]2(O)C(O)=C3C(=O)c4c(O)cccc4[C@@](C)(O)[C@H]3C[C@@H]12
8

Try this molecule too: O=C(N[C@H](CO)[C@H](O)c1ccc([N+](=O)[O-])cc1)C(Cl)Cl
128

Try this molecule too: CN[C@@H]1[C@H](O[C@H]2[C@H](O[C@H]3[C@H](O)[C@@H](O)[C@H](N=C(N)N)[C@@H](O)[C@@H]3N=C(N)N)O[C@@H](C)[C@]2(O)C=O)O[C@@H](CO)[C@H](O)[C@H]1O
8

Try this molecule too: NC[C@H]1O[C@H](O[C@H]2[C@H](O)[C@@H](O[C@H]3O[C@H](CO)[C@@H](O)[C@H](N)[C@H]3O)[C@H](N)C[C@@H]2N)[C@H](O)[C@@H](O)[C@@H]1O
64

====

Test system: Escherichia coli
TEST_NAME: Antibacterial activity against Escherichia coli DH5alpha
Assay type: functional
CONDITION_SET: DH5[alpha]
Provide the reported MIC of each item.
Kindly provide the numeric value in µg/mL only, without the unit symbol.

What does the data say about its MIC? Entry: CC[C@H]1OC(=O)[C@H](C)[C@@H](O[C@H]2C[C@@](C)(OC)[C@@H](O)[C@H](C)O2)[C@H](C)[C@@H](O[C@@H]2O[C@H](C)C[C@H](N(C)C)[C@H]2O)[C@](C)(O)C[C@@H](C)C(=O)[C@H](C)[C@@H](O)[C@]1(C)O
16

Try this molecule too: CC1(C)S[C@@H]2[C@H](NC(=O)[C@H](N)c3ccccc3)C(=O)N2[C@H]1C(=O)O
4

Try this molecule too: O=C(N[C@H](CO)[C@H](O)c1ccc([N+](=O)[O-])cc1)C(Cl)Cl
2

Try this molecule too: NC[C@H]1O[C@H](O[C@H]2[C@H](O)[C@@H](O[C@H]3O[C@H](CO)[C@@H](O)[C@H](N)[C@H]3O)[C@H](N)C[C@@H]2N)[C@H](O)[C@@H](O)[C@@H]1O
0.5

Try this molecule too: CN[C@@H]1[C@H](O[C@H]2[C@H](O[C@H]3[C@H](O)[C@@H](O)[C@H](N=C(N)N)[C@@H](O)[C@@H]3N=C(N)N)O[C@@H](C)[C@]2(O)C=O)O[C@@H](CO)[C@H](O)[C@H]1O
1

Try this molecule too: CN(C)[C@@H]1C(O)=C(C(N)=O)C(=O)[C@@]2(O)C(O)=C3C(=O)c4c(O)cccc4[C@@](C)(O)[C@H]3C[C@@H]12
1

Try this molecule too: CN[C@@H]1[C@H](O)[C@H](NC)[C@H]2O[C@@]3(O)C(=O)C[C@@H](C)O[C@H]3O[C@@H]2[C@H]1O
4

====

Test system: Pseudomonas aeruginosa
TEST_NAME: Antibacterial activity against Pseudomonas aeruginosa NCIM 5029
Format: functional
Provide the reported MIC of each item.
Kindly provide the numeric value in µg/mL only, without the unit symbol.

What does the data say about its MIC? Entry: CC1(C)S[C@@H]2[C@H](NC(=O)[C@H](N)c3ccccc3)C(=O)N2[C@H]1C(=O)O
1020

Try this compound too: CC[C@H]1OC(=O)[C@H](C)[C@@H](O[C@H]2C[C@@](C)(OC)[C@@H](O)[C@H](C)O2)[C@H](C)[C@@H](O[C@@H]2O[C@H](C)C[C@H](N(C)C)[C@H]2O)[C@](C)(O)C[C@@H](C)C(=O)[C@H](C)[C@@H](O)[C@]1(C)O
256

Try this compound too: O=C(O)c1cn(C2CC2)c2cc(N3CCNCC3)c(F)cc2c1=O
1.02

Try this compound too: CC1COc2c(N3CCN(C)CC3)c(F)cc3c(=O)c(C(=O)O)cn1c23 (stereo unspecified)
0.256

Try this compound too: CN[C@@H]1[C@H](O)[C@H](NC)[C@H]2O[C@@]3(O)C(=O)C[C@@H](C)O[C@H]3O[C@@H]2[C@H]1O
256
